assay target: T1, Cynomolgus monkey BCMA (cynomolgus monkey)
T1 construct: Soluble analyte in SPR; also called cyBCMA; Cyno BCMA
protocol summary: SPR, IgG immobilised, cyno BCMA analyte
endpoint name: koff
A complete answer gives the number and then names the unit.

*Q* What value of measured koff is listed for COMBO_Rd4_6nM_C08 (antibody, V domains shown, IgG) VH: EVQLLESGGGLVQPGGSLRLSCAASGFTFSSYPMSWVRQAPGKGLEWVSAIGGSGTWTYYADSVKGRFTISRDNSKNTLYLQMNSLRAEDTAVYYCARYWPMDSWGQGTLVTVSS VL: EIVLTQSPGTLSLSPGERATLSCRASQSVSSSYLAWYQQKPGQAPRLLMYDASIRATGIPDRFSGSGSGTDFTLTISRLEPEDFAVYYCQQYQKWPLTFGQGTKVEIK ?
*A* 0.000428 s⁻¹

*Q* Proceed to COMBO_Rd4_6nM_C12 (antibody, V domains shown, IgG) VH: EVQLLESGGGLVQPGGSLRLSCAASGFTFSSYPMSWVRQAPGKGLEWVSAALGSGGSTYYADSVKGRFTISRDNSKNTLYLQMNSLRAEDTAVYYCARYWPMDSWGQGTLVTVS VL: EIVLTQSPGTLSLSPGERATLSCRASQSVSASYLAWYQQKPGQAPRLLMYDASIRATGIPDRFSGSGSGTDFTLTISRLEPEDFAVYYCQQYMSWPLTFGQGTKVEIK
*A* 0.000486 s⁻¹

*Q* Subsequent entry: C01_Rd4_6nM_C09 (antibody, V domains shown, IgG) VH: EVQLLESGGGLVQPGGSLRLSCAASGFTFSSYPMSWVRQAPGKGLEWVSATVGSGGSIGYADSVKGRFTISRDNSKNTLYLQMNSLRAEDTAVYYCARYWPMDSWGQGTLVTVSS VL: EIVLTQSPGTLSLSPGERATLSCACSQSVSSTYLAWYQQKPGQAPRLLIYDASSRAPGIPDRFSGSGSGTDFTLTISRLEPEDFAVYYCQQYSAWPLTFGQGTKVEIK
*A* 0.00868 s⁻¹

Reference source: patent US20160297884A1
